assay-details: In vivo pharmacokinetics, plasma and brain
Parameters: species or system Balb/C male mice
study-conditions: male, Balb/C, mouse, plasma, po, 250 mg/kg, plasma, 250 mg/kg intragastric, mice group 2
experimental-readout: AUC(0-inf) (ng·h/mL)

* Nc1nc(Nc2ccc(Cl)cc2)nn1S(=O)(=O)c1ccc2ccccc2c1 [Compound 1] | 6890

----------
Tested on: TZM-bl cells
assay-details: Toxicity assay in TZM-bl cells
Type: cell-based
study-conditions: Table 3, TZM-bl
experimental-readout: Qualitative Cell Toxicity within inhibition range

* N#Cc1ccc(Nc2nc(N)n(S(=O)(=O)c3ccc4ccccc4c3)n2)cc1Cl | None
* Nc1nc(Nc2ccc(Cl)c(Cl)c2)nn1S(=O)(=O)c1cccc2ccccc12 | None
* N#Cc1ccc(Nc2nc(N)n(S(=O)(=O)c3c(Cl)nc4sccn34)n2)cc1Cl | Low
* Cc1nc(C)c(S(=O)(=O)n2nc(Nc3ccc(C#N)c(Cl)c3)nc2N)s1 | None
